Every entry's value here was drawn from PubChem BioAssay (NCI).

- Tested on: SW-620 colon
- ASSAY DETAILS: NCI tumour cell line growth inhibition, 48 h
VALUE KIND: TGI

For orientation, consider the following solved cases.
* O=[N+]([O-])[C@@H]1C2C=CC(C2)[C@H]1Cl (stereo partly specified) | > 100 µM
* Oc1ccccc1C(c1cc2c(cc1O)OCO2)N1CCOCC1 (stereo unspecified) | 70.8 µM
* CCN(CC)CCn1c2cc3c(cc2c(=O)c2cccnc21)OCCO3 | > 10 µM
* COC(=O)C(C#N)=C1c2ccccc2Oc2ccccc21 | > 100 µM
* CCn1c(-c2nonc2N)nc2c(C#CCN)ncc(OCCCN)c21 | > 25 µM

With those in mind, consider the next molecule.
Recorded TGI (molecule CC12CC(c3ccccc3O1)C(C(=O)Nc1ccc(F)cc1)C(=O)N2 (stereo unspecified) ): > 100 µM
